tested-on: amylin receptor of rat nucleus accumbens membranes (rat)
Sequence (P32214 other isoform, or with tags, fused parts or gaps, chain 1 of 2): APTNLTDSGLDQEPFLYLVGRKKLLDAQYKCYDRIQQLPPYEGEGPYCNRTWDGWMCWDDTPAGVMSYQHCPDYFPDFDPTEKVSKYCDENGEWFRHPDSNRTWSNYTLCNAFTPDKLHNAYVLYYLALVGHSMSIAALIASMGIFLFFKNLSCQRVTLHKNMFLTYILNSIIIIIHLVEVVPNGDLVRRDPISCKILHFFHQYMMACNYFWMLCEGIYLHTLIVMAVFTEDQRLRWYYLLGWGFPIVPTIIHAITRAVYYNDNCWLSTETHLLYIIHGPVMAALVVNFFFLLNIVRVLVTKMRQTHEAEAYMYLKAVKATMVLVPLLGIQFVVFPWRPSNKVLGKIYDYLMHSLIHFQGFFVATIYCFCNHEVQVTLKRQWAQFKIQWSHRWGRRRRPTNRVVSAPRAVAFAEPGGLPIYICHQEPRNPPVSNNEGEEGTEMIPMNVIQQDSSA
Sequence (Q9JJ74 27-148, chain 2 of 2, further chain): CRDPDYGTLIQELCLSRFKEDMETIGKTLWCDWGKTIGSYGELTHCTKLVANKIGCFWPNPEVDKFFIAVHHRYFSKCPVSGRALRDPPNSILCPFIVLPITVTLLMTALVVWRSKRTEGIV
assay-method-text: competition with 125I-rat amylin, rat nucleus accumbens membranes
pIC50: −log10 of the molar value. Ends that are not written are not given here. Y‑shaped mPEG40KD = Y-shaped methoxy-PEG of 40 kDa attached to the Lys side chain; mPEG40KD = methoxy-PEG of 40 kDa
measured-parameter: pIC50

KCNTATCATQRLANFLVRSSNNLGPK(Y‑shaped mPEG40KD)LPPTNVGSNTY-NH2 (ends and bridges not checked) [[K^26(Y-shaped-mPEG40KD)]-Cmpd 53]
6.33
mPEG40KD-CNTATCATQRLANFLVRSSNNLGPVLPPTNVGSNTY-NH2 (ends and bridges not checked) [mPEG40KD-Cmpd 50]
7.11

I: CNTATCATQRLANFLVRSSNNLGPVLPPTNVGSNTY-NH2 (ends and bridges not checked) [[des-Lys^1]-Cmpd 49]
II: KCNTATCATQRLANFLVRSSNNLGPK(mPEG40KD)LPPTNVGSNTY-NH2 (ends and bridges not checked) [[K^26(mPEG40KD)]-Cmpd 53]
Could you tell me which of I and II has the lower pIC50 reading? Choose, then provide that item's label. II
